Where do these numbers come from? They come from paper PMC10397247.

Target: T1, 4H3121-AA
T1 chain: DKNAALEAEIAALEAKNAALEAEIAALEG
Assay: two-hybrid library CCmax;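 also: natural log of median RNA to DNA barcode read ratio; higher means stronger binding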
Details: mean of both orientations
readout_name: interaction score

DENAALEAKIAALKAKIAALKAKNAALEG [4H1391-AA] : -1.32
DENAALEAEIAALEAEIAALKAENAALEG [4H1035-AA] : -1.67

a. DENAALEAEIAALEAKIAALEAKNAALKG [4H1064-AA]
b. DKIAALKAKNAALKAKNAALKAEIAALKG [4H3066-AA]
c. DENAALKAKIAALEAKNAALKAKIAALKG [4H1854-AA]
Query: // sort entries: interaction score, high to low To answer, write out the labels according to the requested order.
Reply: c, b, a

P. DENAALKAKIAALEAENAALEAEIAALEG [4H1809-AA]
Q. DKIAALKAKNAALEAKIAALKAKNAALEG [4H2991-AA]
Query: Param pair: P , Q . Output: the one whose interaction score is numerically greater. Label of pick, please.
Reply: Q
(Q: 1.28, P: -1.18)
